Each recorded value in this set is attributed to patent US11498903B2.

SYSTEM TESTED: human APJ receptor (Homo sapiens)
Construct: expressed in transfected cells
Sequence (P35414 whole entry): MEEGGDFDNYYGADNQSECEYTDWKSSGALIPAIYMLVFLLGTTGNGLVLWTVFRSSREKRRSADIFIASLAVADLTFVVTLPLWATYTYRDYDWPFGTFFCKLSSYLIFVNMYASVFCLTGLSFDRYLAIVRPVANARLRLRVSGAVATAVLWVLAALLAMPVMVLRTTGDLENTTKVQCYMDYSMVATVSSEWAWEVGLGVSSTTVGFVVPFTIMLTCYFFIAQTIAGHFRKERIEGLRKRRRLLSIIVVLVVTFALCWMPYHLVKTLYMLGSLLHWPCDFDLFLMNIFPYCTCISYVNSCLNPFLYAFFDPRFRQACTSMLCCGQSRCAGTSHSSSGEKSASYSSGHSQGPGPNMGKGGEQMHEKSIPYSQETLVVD
EXPERIMENT SUMMARY: Intracellular cAMP accumulation assay (APJ hcAMP, HTRF)
Type: cell-based
RUN PARAMETERS: Table 3; HEK293 cells stably expressing human APJ receptor; read-out: APJ cAMP Human EC50
Method: Intracellular cAMP Accumulation Assay HEK293 cells stably expressing human APJ receptor were used to assess the activity of compounds. Cultured cells were detached and resuspended in the cAMP Homogeneous Time-Resolved Fluorescence (HTRF) assay buffer (Cisbio cat; #62AM4PEJ). The assay was performed in 384-well assay plates (Perkin-Elmer; cat #6008289) according to assay protocol provided by the manufacturer. […] The fluorescence emission ratio was measured using fluorometer. […]
pEC50: −log10 of the molar value.
Overview of reported pEC50 across a group of molecules:

Give the value of pEC50 reported for the following: COc1cc2[nH]c(-c3cccc(Cl)c3-c3ccc(C(=O)NCCC(C)C)cc3C(=O)O)nc2cc1F
> 8.00

Given the molecule CCC[C@@H](NC(=O)c1ccc(-c2c(Cl)cccc2-c2nc3cc(Cl)c(F)cc3[nH]2)c(C(=O)O)c1)c1ccccc1 (atropisomer, axis not shown) [Example 85] , write its reported pEC50.
> 8.00

Find the measured pEC50 of CCC[C@@H](NC(=O)c1ccc(-c2c(Cl)cccc2-c2nc3cc(OC(C)=O)ccc3[nH]2)c(C(=O)O)c1)c1ccccc1 (atropisomer, axis not shown) [Example 134] and report it.
> 8.00

Check the records and state pEC50 for CC(C)(O)C[C@@H](NC(=O)c1ccc(-c2c(Cl)cccc2-c2nc3ccccc3[nH]2)c(C(=O)O)c1)c1ccccc1 (atropisomer, axis not shown)
> 8.00

Output pEC50 of CCC[C@@H](NC(=O)c1ccc(-c2c(Cl)cccc2-c2nc3cc(Cl)c(F)cc3[nH]2)c(C(=O)OC)c1)c1ccccc1 (atropisomer, axis not shown)
6.30 to 7.00

---
Supply recorded pEC50 for CCC[C@@H](NC(=O)c1ccc(-c2c(Cl)cccc2-c2ncc(-c3ccc(OC)cc3)[nH]2)c(C(=O)O)c1)c1ccccc1 (atropisomer, axis not shown) here.
> 8.00
